Literature roundup of Serine/threonine-protein kinase PAK 1 (Homo sapiens, UniProt Q13153) data, read-out pIC50.
Sequence (Q13153 whole entry): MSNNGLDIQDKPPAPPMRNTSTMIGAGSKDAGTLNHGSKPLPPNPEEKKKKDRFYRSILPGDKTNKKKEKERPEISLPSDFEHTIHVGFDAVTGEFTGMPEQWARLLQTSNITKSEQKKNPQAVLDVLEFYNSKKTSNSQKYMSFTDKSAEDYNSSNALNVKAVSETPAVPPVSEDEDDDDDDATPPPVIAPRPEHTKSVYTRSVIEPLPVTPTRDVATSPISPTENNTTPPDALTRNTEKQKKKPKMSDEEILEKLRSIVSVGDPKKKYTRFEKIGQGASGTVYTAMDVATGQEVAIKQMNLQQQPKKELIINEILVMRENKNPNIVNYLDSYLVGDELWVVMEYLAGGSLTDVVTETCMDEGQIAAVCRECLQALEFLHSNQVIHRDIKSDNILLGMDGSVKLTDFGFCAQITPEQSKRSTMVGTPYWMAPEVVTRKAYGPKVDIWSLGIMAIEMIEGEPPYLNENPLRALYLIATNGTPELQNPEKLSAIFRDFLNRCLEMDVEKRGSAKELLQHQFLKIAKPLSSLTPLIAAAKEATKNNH
pIC50: −log10 of the molar value.

CCn1c(=O)c(-c2nc(C3CCN(C(C)=O)CC3)sc2C)cc2cnc(Nc3ccc(N4CCN(C)CC4)cc3)nc21    < 5.30
CCn1c(=O)c(-c2ccc(-c3ccnc(C(=O)NC)c3)cc2Cl)cc2cnc(Nc3ccc(C4CCN5CCCC5C4)cc3)nc21 (stereo not shown)    6.30 to 7.30
CN(C)CCOc1ccc(-c2ccnc(Nc3ccc(N4CCN(C)CC4)cc3)n2)cn1    5.00 to 6.00
CCN1CCC(c2ccc(Nc3ncc4cc(-c5ccc(-c6cnc(C)s6)cc5Cl)c(=O)n(CC)c4n3)cc2F)CC1    > 7.30
CCn1c(=O)c(-c2ccc(-c3cc(C)nc(C)n3)cc2Cl)cc2cnc(Nc3ccc(C4CCN(C)CC4)cc3)nc21    > 7.30
C1=C(c2ccncc2)C2=NCCN2c2nc(Nc3ccncc3)ncc21    < 5.00
CCN1CCC(c2ccc(Nc3ncc4cc(-c5ccc(-c6ccnc(C)c6)cc5Cl)c(=O)n(CC)c4n3)cc2F)CC1    > 7.30
Cc1ccc(F)cc1Cn1c(=O)ccc2cnc(Nc3ccc(N4CCN(C)CC4)cc3)nc21    > 6.00

API: the following record is the query input.
Data request: // fetch pIC50 given entry `CCN1CCC(c2ccc(Nc3ncc4cc(-c5ccc(-c6cccnc6C)cc5Cl)c(=O)n(C)c4n3)cc2)CC1`
Data returned: > 7.30

----------
IC50 values for Serine/threonine-protein kinase PAK 1 (Homo sapiens, UniProt Q13153) compiled from several publications are listed below.

CNc1ncc2c(n1)N1CCCN=C1C(c1ccc(-n3ccnc(C)c3=O)cc1)=C2    > 10000 nM
NCCNc1ccc(-c2ccnc(Nc3ccc(N4CCNCC4)cc3)n2)cn1    < 1000 nM
CCn1c(=O)c(-c2ccc(-c3ccnc(C)c3)cc2Cl)cc2cnc(Nc3ccc(C4CCNCC4)c(F)c3)nc21    < 50 nM

Data request: Query IC50 for `CCN1CCC(c2ccc(Nc3ncc4cc(-c5ccc(-c6cccnc6F)cc5Cl)c(=O)n(CC)c4n3)cc2F)CC1`
Data returned: < 50 nM

Data request: Input `CSc1cccc(Nc2ncc3c(n2)N2CCN=C2C(c2ccccc2Cl)=C3)c1` , output reported IC50.
Data returned: > 10000 nM

Data request: Complete the entry with IC50 for `Clc1cnccc1C1=Cc2cnc(Nc3ccncc3)nc2N2CCN=C12`
Data returned: > 10000 nM

Data request: Query IC50 for `Cc1cnc(-c2ccc(Cl)c(-c3cc4cnc(Nc5ccc(C6CCN(C)CC6)cc5)nc4n(C)c3=O)c2)s1`
Data returned: 50 to 500 nM

Data request: Determine from records and report IC50 for `CCn1c(=O)c(-c2ccc(-c3ncccn3)cc2Cl)cc2cnc(Nc3ccc(N4CCN(C)CC4)cc3)nc21`
Data returned: < 50 nM

----------
// molecules with pIC50 on Serine/threonine-protein kinase PAK 1 (Homo sapiens, UniProt Q13153), multi-source literature
pIC50: −log10 of the molar value.

Recorded results for 10 molecules are shown here.
CCn1c(=O)c(-c2ccc(-c3cccc4ncccc34)cc2Cl)cc2cnc(Nc3ccc(N4CCN(C)CC4)cc3)nc21    6.30 to 7.30
CN1CCN(c2ccc(Nc3ncc4c(n3)N3CCN=C3C(c3ccccc3Cl)=C4)cn2)CC1    5.00 to 7.00
CN1CCN(c2ccc(Nc3nccc(-c4ccc(Cl)nc4)n3)cc2)CC1    5.00 to 6.00
CN(C)CCOc1ccc(Nc2ncc3c(n2)N2CCN=C2C(c2ccccc2Cl)=C3)cc1    5.00 to 7.00
CCn1c(=O)c(-c2ccc(-c3noc(C)n3)cc2Cl)cc2cnc(Nc3ccc(C4CCN(C)CC4)c(F)c3)nc21    > 7.30
CCn1c(=O)c(-c2ccc(-c3cccnc3F)cc2Cl)cc2cnc(Nc3ccc(CCN4CCCC4)cc3)nc21    > 7.30
Clc1ccccc1C1=Cc2cnc(Nc3cccnc3)nc2N2CCN=C12    < 5.00
CCn1c(=O)c(-c2ccc(S(C)(=O)=O)cc2)cc2cnc(Nc3ccc(N4CCN(C)CC4)cc3)nc21    < 5.30
CN1CCC(c2ccc(Nc3ncc4cc(-c5ccc(-c6cccnc6F)cc5Cl)c(=O)n(C)c4n3)cc2)CC1    > 7.30
Cc1noc(-c2ccccc2Cn2c(=O)ccc3cnc(Nc4ccc(N5CCNCC5)c(F)c4)nc32)n1    > 6.00

Data request: # assay system Serine/threonine-protein kinase PAK 1 (Homo sapiens, UniProt Q13153): give pIC50 of `CCn1c(=O)c(-c2ccc(-c3cccnc3)cc2Cl)cc2cnc(Nc3ccc(C4CCN(C)CC4)cc3)nc21`
Data returned: > 7.30
